All figures here come from ChEMBL document CHEMBL1201862.

System: K562
assaySummary: NCI tumour cell line growth inhibition, 48 h
Calls of active or inactive are those of the source. Cut-off read from the data, not from the text of the source: active = GI50 up to about 1.1 µM and inactive = higher.
Pick from 1 (yes) (active), 0 (no) (inactive) when you respond.

{"molecule": "O=C(CON1C(=O)c2ccccc2C1=O)c1ccccc1", "qualitativeLabel": "0 (no)"}
{"molecule": "O=C(CN1c2ccccc2Sc2ccccc21)N1CCNCC1", "qualitativeLabel": "0 (no)"}

Recorded call for CCOC(=O)c1ccc(-c2onc(C)c2Br)[nH]1 ? 0 (no)

Recorded call for Cc1ccc2[nH]c(=N/c3ccccc3C)/c(=N\c3ccccc3C)[nH]c2c1 ? 0 (no)

====

Form field: GI50 (one value per entry).
Test system: DU-145
assaySummary: NCI tumour cell line growth inhibition, 48 h
Active and inactive are the calls of the source. No stated cut-off is given here; in the data, active = GI50 up to about 1.1 µM and inactive = higher.

What does the data say about its GI50? Entry: O=C(CN1c2ccccc2Sc2ccccc21)N1CCNCC1 > 100 µM (inactive)

What does the data say about its GI50? Entry: COc1cccc(NCC(=O)Nn2c(-c3ccccc3)nc3ccccc3c2=O)c1 > 100 µM (inactive)

What does the data say about its GI50? Entry: N/C(=N\c1ccc(Cl)c(Cl)c1)c1ccccc1N 51.9 µM (inactive)

What does the data say about its GI50? Entry: Nc1nc(-[n+]2ccc(-c3ccncc3)cc2)nc(Cl)c1Cl > 100 µM (inactive)

What does the data say about its GI50? Entry: COc1ccc([N+](=O)[O-])c2c(NCCCN(C)C)ccnc12 5.42 µM (inactive)

What does the data say about its GI50? Entry: Cc1ccc(/C=C2\CCCCCC2=O)cc1 > 100 µM (inactive)

What does the data say about its GI50? Entry: COc1cc(C2c3cc4c(cc3OC3(OC)COC(=O)C23)OCO4)cc(OC)c1OC(C)=O (stereo not drawn) 2.52 µM (inactive)

What does the data say about its GI50? Entry: COc1ccc(-c2nnc(CCCCCCCCc3nnc(-c4ccc(OC)cc4)o3)o2)cc1 > 100 µM (inactive)

What does the data say about its GI50? Entry: CCOP(=O)(OCC)C(c1ccccc1)N(C(=O)NC(F)(F)F)c1ccc(C)cc1 (stereo not drawn) > 100 µM (inactive)
